Biological target: T1, mouse serum albumin (mouse, UniProt P07724 25-608)
T1 construct: also called MSA; MuSA
T1 sequence (P07724 25-608 limits assumed): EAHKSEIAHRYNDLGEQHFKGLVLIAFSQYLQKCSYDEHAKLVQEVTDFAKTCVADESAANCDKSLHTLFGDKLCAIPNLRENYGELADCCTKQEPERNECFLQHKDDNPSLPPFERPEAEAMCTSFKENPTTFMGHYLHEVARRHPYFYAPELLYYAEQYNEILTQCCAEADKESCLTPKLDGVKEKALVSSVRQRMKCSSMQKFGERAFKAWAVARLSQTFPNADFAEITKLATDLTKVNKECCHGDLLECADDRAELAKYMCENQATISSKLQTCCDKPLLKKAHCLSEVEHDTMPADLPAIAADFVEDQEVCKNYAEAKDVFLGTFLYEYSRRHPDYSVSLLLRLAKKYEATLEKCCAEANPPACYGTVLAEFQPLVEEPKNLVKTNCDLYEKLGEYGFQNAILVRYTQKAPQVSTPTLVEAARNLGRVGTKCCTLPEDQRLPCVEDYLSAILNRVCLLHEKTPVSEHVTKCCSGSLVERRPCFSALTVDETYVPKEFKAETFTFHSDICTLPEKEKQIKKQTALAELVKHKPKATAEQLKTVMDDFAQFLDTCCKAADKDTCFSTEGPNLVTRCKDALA
Test: direct binding ELISA, albumin coated
experimentalEndpoint: EC50 (nM)
Hi! Could you send only the number? It should be in nM, unit omitted.

Challenge: Read the entry PCSK9-PKE2 tandem 4472_G10 (designed binder, The real molecule is ONE polypeptide: PCSK9 domain, undisclosed linker H (a code letter), PKE2 domain. It is given here as two chains because the linker letters are unknown., not shown: The inter-domain linker) PCSK9 domain: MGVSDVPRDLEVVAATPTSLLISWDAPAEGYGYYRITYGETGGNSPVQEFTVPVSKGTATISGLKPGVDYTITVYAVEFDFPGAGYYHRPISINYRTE PKE2 domain: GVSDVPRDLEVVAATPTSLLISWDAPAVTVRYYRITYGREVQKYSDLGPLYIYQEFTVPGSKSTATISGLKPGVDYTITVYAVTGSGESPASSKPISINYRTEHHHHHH and write its reported EC50.
Response given: 10

Challenge: Read the entry PCSK9-PKE2 tandem 4472_E05 (designed binder, not shown: small tags and cut ends, The two parts are one polypeptide in the real molecule, joined by the undisclosed linker R; they are given here as separate chains.) PCSK9 10Fn3: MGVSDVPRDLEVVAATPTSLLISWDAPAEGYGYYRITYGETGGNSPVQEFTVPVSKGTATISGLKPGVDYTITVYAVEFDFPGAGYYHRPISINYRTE PKE2 10Fn3: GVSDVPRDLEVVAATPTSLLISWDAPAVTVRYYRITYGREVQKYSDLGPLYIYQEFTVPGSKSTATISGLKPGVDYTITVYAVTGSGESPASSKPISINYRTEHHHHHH and write its reported EC50.
Response given: 13.1

Challenge: Read the entry PCSK9-PKE2 tandem 4472_E04 (designed binder, not shown: small tags and cut ends, The two parts are one polypeptide in the real molecule, joined by the undisclosed linker Q; they are given here as separate chains.) PCSK9 10Fn3: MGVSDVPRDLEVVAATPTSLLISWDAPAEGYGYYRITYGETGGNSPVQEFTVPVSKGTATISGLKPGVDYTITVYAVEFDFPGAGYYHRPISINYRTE PKE2 10Fn3: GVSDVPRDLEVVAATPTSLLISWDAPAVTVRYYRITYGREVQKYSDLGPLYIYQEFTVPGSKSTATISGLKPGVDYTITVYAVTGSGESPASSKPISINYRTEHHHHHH and write its reported EC50.
Response given: 8.9
